testName: melting temperature; fluorescence melt of hairpins on a sequencing array, two-state fit, raised by 9.35 °C to match UV melts
settings: sodium 0.088 M
experimentalReadout: Tm (°C)
All answers are understood in °C, so give the number only.

chainSequence	Tm (°C)
GCTGTAGGAAACTACAAC (.(((((....))))).)	30.9

Note down Tm recorded for GAGTGCCGAAAGGCCTC (((.(((....)))))) 56.8

Note down Tm recorded for GTCTTGGGAAACCGAGAC ((((.((....)).)))) 49.9

Note down Tm recorded for GGCGACGAAAGTCTGCC ((((((....))).))) 59.2

Note down Tm recorded for GAACAAGGAAACCTGTTC (((((.(....).))))) 37.3

Note down Tm recorded for GTAGAGGGAAACCCCTAC ((((.((....)).)))) 39.2

Note down Tm recorded for GATCTTTAACAAGATC ((((((....)))))) 38.1

----------
testName: melting temperature; fluorescence melt of hairpins on a sequencing array, two-state fit, raised by 9.35 °C to match UV melts
settings: sodium 0.088 M
experimentalReadout: Tm (°C)
All answers are understood in °C, so give the number only.

chainSequence	Tm, °C
GTCCAAGCGAAAGCTGAC (((..(((....))))))	41.4
GTAACCGAAAGGTTGTAC ((((((....)))..)))	33.4
GCACAGGGAAACCTGCAC (..((((....))))..)	28.4
GCGCTTGGAAACGAGTGC ((.((.(....).)).))	46.1
GCGCTACGAAAGTATCGC (((.(((....))).)))	53.9
GGAGTCGAAAGACCTCC ((((((....))).)))	50
GATCCGGAAGCGGATC ((((((....))))))	59.8
GAATGTGGAAACATATTC ((((.((....)).))))	35.1
GATGCCGAAAGGCGCATC ((((((....)))..)))	32.6
GGTAGCGGAAACGTTACC ((((.((....)).))))	50.4

Note down Tm recorded for GTATTAGGAAACTGATAC ((((.((....)).)))) 34.3

Note down Tm recorded for GCCTAGGGAAACTTGGGC (((.(.(....).).))) 36.7

----------
testName: folding enthalpy; higher = less favourable; fluorescence melt of hairpins on a sequencing array, two-state fit
settings: sodium 0.088 M
experimentalReadout: folding enthalpy (kJ/mol)
All answers are understood in kJ/mol, so give the number only.

Solved cases (5 shown):
chainSequence	folding enthalpy [kJ/mol]
GCGATGCGAAAGCACAGC ((..(((....)))..))	-80.4
GTGCAGCGAAAGCTACAC (((.(((....))).)))	-130
GTCGGTGGAAACACTGGC (.(.(((....))).).)	-116
GCGATTCCTCGC ((((....))))	-93.7
GATCGTTATCACGATC ((((((....))))))	-176

Note down folding enthalpy recorded for GTTTCCGAAAGGAAGAAC ((((((....)))..))) -46.4

Note down folding enthalpy recorded for GATCAATTTTTTGATC ((((((....)))))) -147

----------
testName: folding enthalpy; higher = less favourable; fluorescence melt of hairpins on a sequencing array, two-state fit
settings: sodium 0.088 M
# class assignment by measured folding enthalpy: lower range (below -30 kcal/mol), middle range (-30 kcal/mol to below -20 kcal/mol), upper range (-20 kcal/mol or more)

Where would GACTTGAAAAAGTC (((((....))))) land among the classes by reported folding enthalpy? middle range

Where would GTAGGAGGAAACTCCTAC (((((((....))))))) land among the classes by reported folding enthalpy? lower range

Where would GCGGGCACGAAAGTGCGC (((..(((....)))))) land among the classes by reported folding enthalpy? upper range

Where would GATCTGGGGCCAGATC ((((((....)))))) land among the classes by reported folding enthalpy? lower range

Where would GCCTCCGAAAGGACAGGC ((((((....)))..))) land among the classes by reported folding enthalpy? lower range

----------
Catalogue of sequences with associated folding enthalpy
testName: folding enthalpy; higher = less favourable; fluorescence melt of hairpins on a sequencing array, two-state fit
settings: sodium 0.088 M
All answers are understood in kcal/mol, so give the number only.

chainSequence	folding enthalpy / kcal/mol
GGCAATGGAAACGTTGTC (.(((.(....).))).)	-25.9
GATCTGCCACCAGATC ((((((....))))))	-35.1
GTCAACGAAAGTTCGGAC ((((((....)))..)))	-14
GATCCTATGAGGATC ((((((...))))))	-34.7

Note down folding enthalpy recorded for GCAGAGCGAAAGCACGGC ((.(.((....)).).)) -20.9

----------
testName: melting temperature; fluorescence melt of hairpins on a sequencing array, two-state fit, raised by 9.35 °C to match UV melts
settings: sodium 0.088 M
experimentalReadout: Tm (°C)
All answers are understood in °C, so give the number only.

Solved cases (4 shown):
chainSequence	reportedValue
GCCTACCCGAAAGGGGGC (((..(((....))))))	52.4
GAGCTTGAAAAAGCTC ((((((....))))))	58.1
GCGCGGCGAAAGCCCTGC ((..(((....)))..))	50.1
GACGCTGGAAACGGCGTC (((((.(....).)))))	64.9

Note down Tm recorded for GGCCTGGGAAACCGGGTC (.((.((....)).)).) 49

Note down Tm recorded for GACCACGAAAGTGAAGTC ((((((....)))..))) 40.2

Note down Tm recorded for GGATTCGAAAGAATCC ((((((....)))))) 62.9

Note down Tm recorded for GCGAGGTATCGC ((((....)))) 55.6

Note down Tm recorded for GATCTTCACTAAGATC ((((((....)))))) 43.9

Note down Tm recorded for GAGACCGAAAGGTAGCTC ((((((....)))..))) 39.6

Note down Tm recorded for GTTTGACGAAAGTCCAAC (((.(((....))).))) 40.5

Note down Tm recorded for GATCTGAATTCAGATC ((((((....)))))) 50.2

----------
testName: melting temperature; fluorescence melt of hairpins on a sequencing array, two-state fit, raised by 9.35 °C to match UV melts
settings: sodium 0.088 M
experimentalReadout: Tm (°C)
All answers are understood in °C, so give the number only.

chainSequence	Tm / °C
GATACCGAAAGGTGAATC ((((((....)))..)))	27.2
CGTTCGCGGAAACGCACG (((..(((....))))))	40.4
GACAGGCGAAAGCCAGTC (((.(((....))).)))	58.1
GATCTAGTGCTAGATC ((((((....))))))	44.3
GGGTCATCGAAAGATCCC (((..(((....))))))	34.5

Note down Tm recorded for GCAGCACGAAAGTGATGC (((.(((....))).))) 69

Note down Tm recorded for GAGTAACGAAAGTTTCTC (((.(((....))).))) 40.3

Note down Tm recorded for GGTCCTGGAAACGGGACC (((((.(....).))))) 57.3

Note down Tm recorded for GATCTGTGGCCAGATC ((((((....)))))) 50.4

Note down Tm recorded for GAGCTCGGAAACGGGCTC ((((.((....)).)))) 60.7

Note down Tm recorded for GATCCGTCTTCGGATC ((((((....)))))) 59.4

Note down Tm recorded for GATCGAATTGTCGATC ((((((....)))))) 50

Note down Tm recorded for GGGTCCGGAAACGGGTCC ((..(((....)))..)) 50.1

Note down Tm recorded for GCAGCTGGAAACAGTTGC (((.(((....))).))) 53.1

----------
testName: folding enthalpy; higher = less favourable; fluorescence melt of hairpins on a sequencing array, two-state fit
settings: sodium 0.088 M
experimentalReadout: folding enthalpy (kcal/mol)
All answers are understood in kcal/mol, so give the number only.

chainSequence	unitsOfMeasure	folding enthalpy
GGCTCTCGAAAGAGCGCC (((.(((....))).)))	kcal/mol	-34.6
GCGTACGAAAGTAGCGC ((((((....))).)))	kcal/mol	-31.1
GCGCCACGAAAGTGTCGC (((.(((....))).)))	kcal/mol	-41.7
GTGGCAGGAAACTGTCAC (((.(((....))).)))	kcal/mol	-41

Next:
Note down folding enthalpy recorded for GATCGGTGAACCGATC ((((((....)))))) -43.4

----------
testName: folding enthalpy; higher = less favourable; fluorescence melt of hairpins on a sequencing array, two-state fit
settings: sodium 0.088 M
experimentalReadout: folding enthalpy
Enter the number, and then the unit.

Solved cases (5 shown):
chainSequence	folding enthalpy
GCGTGATCGAAAGATCGC (((..(((....))))))	-15.6 kcal/mol
GATCCGTAACCGGATC ((((((....))))))	-39.2 kcal/mol
GCTCGCGAAAGCGTCAGC ((((((....)))..)))	-12.3 kcal/mol
GATCGGGTCGCCGATC ((((((....))))))	-7.84 kcal/mol
GACACCGGAAACGGCATC ((..(((....)))..))	-9.17 kcal/mol

Note down folding enthalpy recorded for GGGGATCGAAAGATGCCC (((.(((....))).))) -48.8 kcal/mol

Note down folding enthalpy recorded for GGTGATGGAAACACCACC ((((.((....)).)))) -23.8 kcal/mol

Note down folding enthalpy recorded for GAGGCAGGAAACTGCTTC ((.((((....)))).)) -18 kcal/mol

Note down folding enthalpy recorded for GTTGAGTCGAAAGACAAC (((..(((....)))))) -14.6 kcal/mol

Note down folding enthalpy recorded for GTGAGGGGAAACCCTCGC (.(((((....))))).) -34 kcal/mol

Note down folding enthalpy recorded for GGTTCACGAAAGTGGACC (((.(((....))).))) -38 kcal/mol

Note down folding enthalpy recorded for GCCACTCCGAAAGGAGGC (((..(((....)))))) -8.62 kcal/mol

Note down folding enthalpy recorded for GGCTGTGGAAACACAGTC (.(((((....))))).) -28.2 kcal/mol

Note down folding enthalpy recorded for GCACGGCGAAAGCATTGC (((..((....))..))) -16.6 kcal/mol

Note down folding enthalpy recorded for GAAGCGGCGAAAGCCTTC (((..(((....)))))) -10.2 kcal/mol

Note down folding enthalpy recorded for GGTACCGAAAGGTGGACC ((((((....)))..))) -17 kcal/mol

Note down folding enthalpy recorded for GCCTGAGGAAACTTGGGC (((..((....))..))) -29 kcal/mol

Note down folding enthalpy recorded for GTTGACGAAAGTCTGAAC ((((((....)))..))) -11.5 kcal/mol

Note down folding enthalpy recorded for GACAAACGAAAGTTGTC (((.(((....)))))) -29.1 kcal/mol

Note down folding enthalpy recorded for GCGGTGGGAAACCGTCGC (((..((....))..))) -14.3 kcal/mol

Note down folding enthalpy recorded for GCGCCCGAAAGGGTCCGC ((((((....)))..))) -14.8 kcal/mol

Note down folding enthalpy recorded for GTGATGGAAACATCAC ((((((....)))))) -41.8 kcal/mol

Note down folding enthalpy recorded for GGAGCGGGAAACTGCTCC (((((.(....).))))) -45 kcal/mol

Note down folding enthalpy recorded for GATCGTTAGAACGATC ((((((....)))))) -34.7 kcal/mol

Note down folding enthalpy recorded for GAATGCGAAAGCATCTTC ((((((....)))..))) -23.4 kcal/mol

Note down folding enthalpy recorded for ATCTCGAAAGAGAT (((((....))))) -20.9 kcal/mol

Note down folding enthalpy recorded for GAGATACGAAAGTAGCTC (((.(((....))).))) -40.8 kcal/mol
